TGI reference
System: U251 CNS
Experiment: NCI tumour cell line growth inhibition, 48 h

Consider the following illustrative entries.
{"compound": "COc1ccc(OC)c2c1C=C[C@H](C1(C)SCCS1)C2C(C)=O (stereo partly drawn)", "TGI": "73.2 µM"}
{"compound": "CC1(C)[C@@H]2CC[C@@]1(C)C1(SS1=O)C21Cc2ccccc2C1 (stereo partly drawn)", "TGI": "84.5 µM"}

-- ask Which value of TGI has been reported for C=Cc1c(C)c(O)cc2c1-c1ccc(O)c(C)c1CC2 in the records?
-- reply 34.3 µM

-- ask Same lookup for O=C(O)/C=C\C(=O)c1ccc(Cl)cc1 , please.
-- reply > 100 µM

-- ask Same lookup for CC1(C)O[C@@H](CC/C=C/CO)[C@H](CC/C=C/CO)O1 , please.
-- reply > 100 µM

-- ask Same lookup for CC12CCCCC1C(=O)C2(Cl)Cl (stereo not drawn) , please.
-- reply 5.56 µM

-- ask Same lookup for O=S(=O)(SCCCCSS(=O)(=O)c1ccc(Cl)cc1)c1ccc(Cl)cc1 , please.
-- reply 21 µM

-- ask Same lookup for C=CCN(N=O)C(=O)NCCCC(NC(C)=O)C(=O)NCc1ccccc1 (stereo not drawn) , please.
-- reply > 100 µM

-- ask Same lookup for CC(C)(Br)C(Br)CCC1(C(Br)CBr)CO1 (stereo not drawn) , please.
-- reply > 10 µM

-- ask Same lookup for Cn1c(=O)nc2n(-c3cc(Cl)ccc3Cl)c3ccccc3nc-2c1=O , please.
-- reply 20.4 µM
